Where do these numbers come from? They come from paper PMC10786891.

I'd be grateful if you could share measured pKd for these entries.
# tgt: T1, EsCas13d, nuclease-dead (Eubacterium siraeum, UniProt B0MS50, R295A;H300A;R849A;H854A)
# T1 sequence: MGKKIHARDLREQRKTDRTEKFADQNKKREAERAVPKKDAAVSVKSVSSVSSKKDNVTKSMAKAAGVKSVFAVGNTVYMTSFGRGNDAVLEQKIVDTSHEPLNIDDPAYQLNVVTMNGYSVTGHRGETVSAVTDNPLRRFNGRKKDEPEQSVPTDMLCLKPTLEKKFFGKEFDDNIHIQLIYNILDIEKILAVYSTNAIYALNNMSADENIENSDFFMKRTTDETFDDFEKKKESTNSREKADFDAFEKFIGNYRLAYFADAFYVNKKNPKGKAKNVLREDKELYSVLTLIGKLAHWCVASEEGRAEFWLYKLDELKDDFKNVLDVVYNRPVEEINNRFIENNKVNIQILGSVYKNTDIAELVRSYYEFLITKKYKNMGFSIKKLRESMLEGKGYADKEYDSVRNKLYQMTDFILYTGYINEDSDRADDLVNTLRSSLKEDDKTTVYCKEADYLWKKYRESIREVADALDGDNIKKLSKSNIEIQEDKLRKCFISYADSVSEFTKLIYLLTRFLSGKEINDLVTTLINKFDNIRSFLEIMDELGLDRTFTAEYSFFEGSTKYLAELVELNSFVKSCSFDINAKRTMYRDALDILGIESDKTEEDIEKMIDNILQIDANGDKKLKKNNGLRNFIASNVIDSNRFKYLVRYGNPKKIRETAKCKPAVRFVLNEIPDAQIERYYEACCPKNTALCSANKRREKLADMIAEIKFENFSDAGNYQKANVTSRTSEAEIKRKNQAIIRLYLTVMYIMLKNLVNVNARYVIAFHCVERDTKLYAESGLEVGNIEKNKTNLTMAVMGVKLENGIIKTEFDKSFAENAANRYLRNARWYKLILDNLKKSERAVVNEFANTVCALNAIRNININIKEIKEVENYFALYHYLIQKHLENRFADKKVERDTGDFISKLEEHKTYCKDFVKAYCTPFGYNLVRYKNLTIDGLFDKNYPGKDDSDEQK
# test.name: crRNA (strand 1, pre-loaded); Mg2+; 40 mM Tris-HCl pH 7.5, 150 mM NaCl, 6 mM MgCl2, 1 mM DTT, 0.1% Tween-20, 0.2 mg/ml BSA; 25 C; 10 min per concentration, then washed
# assay.context: tags: His6-TwinStrep-SUMO cleaved; N-terminal SNAP kept (SNAP-Surface 488); label: 3' end held by stalled T7 RNA polymerase
Numbers only, as −log10 of the molar value.

binder="target 1 insC 3' of 20,insA 3' of 4 (mixed) RNA 1: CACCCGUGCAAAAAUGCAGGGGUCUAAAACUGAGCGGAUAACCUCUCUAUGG RNA 2: GGGAAUGGAUCCACAUCUACGAAUUCGUACCACUAGAGAGGUUAUCCGCAUCACCGAGAUCGGAAGAGCACACGU" parameter=pKd recorded_result=8.19

Hello, I would appreciate it if you could give pKd for each entry below.
1. target 2 MT 5'PFS GAA 3'PFS CAC (mixed) RNA 1: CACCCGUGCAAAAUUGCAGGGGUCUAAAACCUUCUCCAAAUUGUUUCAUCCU RNA 2: GGGAAUGGAUCCACAUCUACGAAUUCGAAAGGAUGAAACAAUUUGGAGAAGCACAGAUCGGAAGAGCACACGU
2. target 1 C7A,A9G (mixed) RNA 1: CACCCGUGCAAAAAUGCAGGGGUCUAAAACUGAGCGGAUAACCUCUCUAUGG RNA 2: GGGAAUGGAUCCACAUCUACGAAUUCGUACCAUAGAGAGGUUGUACGCUCACCGAGAUCGGAAGAGCACACGU
3. target 3 G19A,U20G (mixed) RNA 1: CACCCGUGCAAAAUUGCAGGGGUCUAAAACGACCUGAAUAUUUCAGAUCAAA RNA 2: GGGAAUGGAUCCACAUCUACGAAUUCGUUUUGAAUCUGAAAUAUUCAGGUCUGCAGAUCGGAAGAGCACACGU

[reply]
[8.15, 7.94, 7.26]
